assay: Metabolic stability in iv dosed pig plasma after 30 mins; format: ADME, organism-based, Sus scrofa; settings: read-out: Stability
READOUT KIND: remaining at 0.5 h (%)

[11CH3]n1cccc1C(=O)[C@H](c1ccccc1)N1CCCC1 : 41
[11CH3]n1cccc1C(=O)[C@@H](c1ccccc1)N1CCCC1 : 41

----------
assay: Metabolic stability in iv dosed pig plasma after 50 mins; format: ADME, organism-based, Sus scrofa; details: read-out: Stability
READOUT KIND: remaining at 50 min (%)

[11CH3]n1cccc1C(=O)[C@H](c1ccccc1)N1CCCC1 : 24
[11CH3]n1cccc1C(=O)[C@@H](c1ccccc1)N1CCCC1 : 24
